Biological target: recombinant human NK3 receptor (Homo sapiens (Human), UniProt P29371)
Sequence (P29371 whole entry): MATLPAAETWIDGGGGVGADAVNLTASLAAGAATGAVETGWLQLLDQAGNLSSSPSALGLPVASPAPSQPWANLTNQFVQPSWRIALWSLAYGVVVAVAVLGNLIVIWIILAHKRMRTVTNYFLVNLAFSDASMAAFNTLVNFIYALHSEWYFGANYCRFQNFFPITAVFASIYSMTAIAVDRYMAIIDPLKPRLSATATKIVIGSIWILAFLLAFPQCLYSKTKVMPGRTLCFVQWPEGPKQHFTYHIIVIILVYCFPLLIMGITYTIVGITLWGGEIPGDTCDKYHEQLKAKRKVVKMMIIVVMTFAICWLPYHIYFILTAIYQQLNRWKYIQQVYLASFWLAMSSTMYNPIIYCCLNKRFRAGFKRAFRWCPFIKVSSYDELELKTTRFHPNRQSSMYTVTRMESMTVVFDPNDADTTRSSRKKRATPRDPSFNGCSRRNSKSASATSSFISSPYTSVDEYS
Test: biochemical
Assay type: binding
Conditions: [3H]SR142801, membranes of HEK293 cells transiently expressing recombinant human NK3 receptor; read-out: Data Ki (hNK-3 receptor affinity)
pKi: −log10 of the molar value.
Label label 1 when pKi is at or above 8; anything below gets label 0.

MOLECULE_SMILES	LABEL
CCN(C(=O)Oc1ccc(F)cc1)[C@@H]1CN(C(=O)C2CCN(c3cnc(C#N)cn3)CC2)C[C@H]1c1ccc(Cl)c(F)c1	label 1
CCN(C(=O)Oc1ccc(F)cc1)[C@@H]1CN(C(=O)C2CCN(C(=O)C3CCC3)CC2)C[C@H]1c1ccc(Cl)c(F)c1	label 1
CCN(C(=O)Oc1ccc(F)cc1)[C@@H]1CN(C(=O)C2CCN(C(=O)C3CCOCC3)CC2)C[C@H]1c1ccc(Cl)cc1	label 1
CCN(C(=O)Oc1ccccc1F)[C@@H]1CN(C(=O)C2CCN(C(=O)C3(C#N)CC3)CC2)C[C@H]1c1ccc(Cl)cc1	label 0
CCN(C(=O)Oc1ccc(F)cc1)[C@@H]1CN(C(=O)C2CCN(C(=O)C3(C)CC3)CC2)C[C@H]1c1ccc(Cl)c(F)c1	label 1

---

# Ki annotations
Target: recombinant human NK3 receptor (Homo sapiens (Human))
Experiment: biochemical
Format: binding
Conditions: [3H]SR142801, membranes of HEK293 cells transiently expressing recombinant human NK3 receptor; read-out: Data Ki (hNK-3 receptor affinity)

MOLECULE_SMILES	Ki
CCN(C(=O)Oc1ccc(F)cc1)[C@@H]1CN(C(=O)C2CCN(C(=O)[C@@H]3CC(=O)N3)CC2)C[C@H]1c1ccc(F)c(F)c1	66 nM
CCN(C(=O)Oc1ccc(F)cc1)[C@@H]1CN(C(=O)C2CCN(c3ccc(C(N)=O)cn3)CC2)C[C@H]1c1ccc(Cl)c(Cl)c1	0.9 nM
CCN(C(=O)Oc1ccc(F)cc1)[C@@H]1CN(C(=O)C2CCN(S(C)(=O)=O)CC2)C[C@H]1c1ccc(Cl)c(F)c1	29 nM

---

Molecular target: recombinant human NK3 receptor (Homo sapiens (Human), UniProt P29371)
Test: biochemical
Assay type: binding
Conditions: [3H]SR142801, membranes of HEK293 cells transiently expressing recombinant human NK3 receptor; read-out: Data Ki (hNK-3 receptor affinity)
Description: [^3H]SR142801 Competition Binding Assay hNK3 receptor binding experiment were performed using [^3H]SR142801 (Catalog No. TRK1035, specific activity: 74.0 Ci/mmol, Amersham, GE Healthcare UK limited, Buckinghamshire, UK) and membrane isolated from HEK293 cells transiently expressing recombinant human NK3 receptor. […] Nonspecific binding was measured in the presence of 10 μM SB222200 for both radioligands. […]
pKi: −log10 of the molar value.
# pKi annotations

MOLECULE	pKi
CCN(C(=O)Oc1ccc(F)cc1)[C@H]1CN(C(=O)C2CCN(c3ccc(S(C)(=O)=O)cn3)CC2)C[C@@H]1c1ccc(Cl)cc1 [Example 10]	7.19
CCN(C(=O)Oc1ccc(F)cc1)[C@@H]1CN(C(=O)C2CCN(c3ccc(S(C)(=O)=O)cn3)CC2)C[C@H]1c1ccc(F)c(F)c1 [Example 64]	8.30
CCN(C(=O)Oc1ccc(F)cc1)[C@@H]1CN(C(=O)C2CCN(c3ccc(C#N)nn3)CC2)C[C@H]1c1ccc(Cl)cc1 [Example 18]	8.70
CCN(C(=O)Oc1ccc(F)cc1)[C@@H]1CN(C(=O)C2CCN(C(=O)C3(C(F)(F)F)CC3)CC2)C[C@H]1c1ccc(Cl)cc1 [Example 95]	8.21
CCN(C(=O)Oc1ccc(F)cc1)[C@@H]1CN(C(=O)C2CCN(c3ccc(C(C)=O)cn3)CC2)C[C@H]1c1ccc(Cl)cc1 [Example 14]	8.52
CCN(C(=O)Oc1ccc(F)cc1)[C@H]1CN(C(=O)C2CCN(c3ccc(C(C)=O)cn3)CC2)C[C@@H]1c1ccc(Cl)cc1 [Example 8]	7.26
